Here the recorded Concentration of FLNA-Binding Compound as Agonist 0.1 μM is given for each entry.
test system: mu opiate receptor (MOR); experiment: MOR agonist activity using [35S]GTPγS binding assay in striatal membranes; assay type: biochemical; settings: Series C-1; 0.1 μM compound; [35S]GTPγS binding to Gαo, striatal membranes
propertyName: Concentration of FLNA-Binding Compound as Agonist 0.1 μM (%)

molecule: CC(=O)c1ccc(C(=O)N2CCOC23CCN(S(=O)(=O)c2ccc(C(C)=O)cc2)CC3)cc1
testedTarget: mu opiate receptor (MOR)
outputUnit: %
readoutNumber: 104.0

molecule: O=S(=O)(c1csc2ccccc12)N1CCC2(CC1)OCCN2S(=O)(=O)c1csc2ccccc12 [Compound C0150M]
testedTarget: mu opiate receptor (MOR)
outputUnit: %
readoutNumber: 167.1

molecule: COc1ccc(C(=O)N2CCC3(CC2)OCCN3C(=O)c2ccc(OC)cc2)cc1
testedTarget: mu opiate receptor (MOR)
outputUnit: %
readoutNumber: 153.8

molecule: O=C(c1ccc([N+](=O)[O-])cc1)N1CCC2(CC1)OCCN2S(=O)(=O)c1ccc([N+](=O)[O-])cc1 [Compound C0033]
testedTarget: mu opiate receptor (MOR)
outputUnit: %
readoutNumber: 134.5

molecule: CNc1ccc(S(=O)(=O)N2CCC3(CC2)OCCN3S(=O)(=O)c2ccc(NC)cc2)cc1
testedTarget: mu opiate receptor (MOR)
outputUnit: %
readoutNumber: 178.4

molecule: O=S(=O)(c1ccccc1)N1CCC2(CC1)OCCN2S(=O)(=O)c1ccccc1
testedTarget: mu opiate receptor (MOR)
outputUnit: %
readoutNumber: 172.7

molecule: O=S(=O)(c1ccc(C(F)(F)F)cc1Br)N1CCC2(CC1)OCCN2S(=O)(=O)c1ccc(C(F)(F)F)cc1Br
testedTarget: mu opiate receptor (MOR)
outputUnit: %
readoutNumber: 276.3

molecule: COc1ccc(S(=O)(=O)N2CCC3(OCCN3S(=O)(=O)c3ccc(OC)cc3)C3CCCCC32)cc1 (stereo not drawn) [Compound C0144M]
testedTarget: mu opiate receptor (MOR)
outputUnit: %
readoutNumber: 186.3

molecule: O=S(=O)(c1ccc2ccccc2c1)N1CCC2(CC1)OCCN2S(=O)(=O)c1ccc2ccccc2c1 [Compound C0140M]
testedTarget: mu opiate receptor (MOR)
outputUnit: %
readoutNumber: 126.1

molecule: Cc1ccccc1S(=O)(=O)N1CCC2(CC1)OCCN2S(=O)(=O)c1ccccc1C
testedTarget: mu opiate receptor (MOR)
outputUnit: %
readoutNumber: 138.7

molecule: N#Cc1ccccc1S(=O)(=O)N1CCC2(CC1)OCCN2S(=O)(=O)c1ccccc1C#N
testedTarget: mu opiate receptor (MOR)
outputUnit: %
readoutNumber: 122.0

molecule: O=S(=O)(c1ccc(Br)cc1)N1CCC2(CC1)OCCN2S(=O)(=O)c1ccc(Br)cc1
testedTarget: mu opiate receptor (MOR)
outputUnit: %
readoutNumber: 235.7

molecule: COc1ccc(S(=O)(=O)N2CCC3(CC2)OCCN3S(=O)(=O)c2ccc(OC)cc2)cc1
testedTarget: mu opiate receptor (MOR)
outputUnit: %
readoutNumber: 152.3

molecule: CC(=O)c1ccc(S(=O)(=O)N2CCC3(CC2)NC(=O)CN3S(=O)(=O)c2ccc(C(C)=O)cc2)cc1
testedTarget: mu opiate receptor (MOR)
outputUnit: %
readoutNumber: 213.8

molecule: Cc1cccc(S(=O)(=O)N2CCC3(CC2)OCCN3S(=O)(=O)c2cccc(C)c2)c1
testedTarget: mu opiate receptor (MOR)
outputUnit: %
readoutNumber: 144.9
